Target: RAF kinases (Homo sapiens, UniProt P15056, V600E)
Sequence (P15056 whole entry V600E): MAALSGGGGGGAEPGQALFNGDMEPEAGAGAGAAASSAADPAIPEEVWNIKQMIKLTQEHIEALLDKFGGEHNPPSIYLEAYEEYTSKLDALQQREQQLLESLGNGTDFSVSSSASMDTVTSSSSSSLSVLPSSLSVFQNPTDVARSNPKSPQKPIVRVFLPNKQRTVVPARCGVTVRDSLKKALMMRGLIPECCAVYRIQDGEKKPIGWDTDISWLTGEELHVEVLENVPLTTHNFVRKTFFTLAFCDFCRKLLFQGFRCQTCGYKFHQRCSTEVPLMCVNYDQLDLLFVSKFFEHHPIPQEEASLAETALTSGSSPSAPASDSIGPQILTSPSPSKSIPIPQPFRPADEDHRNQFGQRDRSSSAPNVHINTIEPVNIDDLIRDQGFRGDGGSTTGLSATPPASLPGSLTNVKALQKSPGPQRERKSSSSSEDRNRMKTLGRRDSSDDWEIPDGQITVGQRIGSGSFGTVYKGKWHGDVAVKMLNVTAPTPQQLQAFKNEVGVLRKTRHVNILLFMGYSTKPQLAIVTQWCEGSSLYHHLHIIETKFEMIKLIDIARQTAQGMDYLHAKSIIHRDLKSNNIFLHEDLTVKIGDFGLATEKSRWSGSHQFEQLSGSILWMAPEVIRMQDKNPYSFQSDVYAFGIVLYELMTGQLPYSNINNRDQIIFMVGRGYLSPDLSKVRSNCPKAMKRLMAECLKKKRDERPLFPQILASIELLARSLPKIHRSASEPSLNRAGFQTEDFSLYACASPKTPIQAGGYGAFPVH
Experiment: biochemical
pKd: −log10 of the molar value.
Recorded measurements of pKd, one per entry

>>> endpoint_value("COc1cc2ncnc(Sc3cccc(NC(=O)Nc4cc(C(C)(C)C)nn4-c4cccc(F)c4)c3)c2cc1OC [Ex 360]")
"6.30 to 6.60"
>>> endpoint_value("COc1cc(NC(=O)Nc2cccc(Oc3ncnc4cc(OC)c(OC)cc34)c2)cc(C(F)(F)F)c1 [Ex 116]")
"6.30 to 6.60"

Could you please provide reported pKd for COCCOc1cc2ncnc(Oc3cccc(NC(=O)Nc4cc(C5CCOCC5)no4)c3)c2cc1OC [Ex 216] ? Thanks!
6.30 to 6.60

Return the recorded pKd value; entry: COc1cc2ncnc(Oc3cccc(NC(=O)Nc4cc(C(C)(C)C)nn4-c4ccccc4C)c3)c2cc1OC [Ex 342]
6.30 to 6.60

###

Molecular target: RAF kinases (Homo sapiens)
Conditions: read-out: RAF1 Kd; RAF1
Where a name gives a salt, the structure may show the parent alone.
measure: Kd

Use the examples below as a reference point.
>>> endpoint_value("COc1cc2ncnc(Sc3cccc(NC(=O)Nc4cc(C(C)(C)C)nn4-c4ccc(C(C)(C)C)cc4)c3)c2cc1OC [Ex 370]")
"> 1000 nM"
>>> endpoint_value("CCOC(=O)Cn1nc(C(C)(C)C)cc1NC(=O)Nc1cccc(Oc2ncnc3cc(OCCOC)c(OC)cc23)c1 [Ex 224, hydrochloride]")
"> 1000 nM"

Kindly consider the entry below.
Tell me Kd of COc1cc2ncnc(Sc3cccc(NC(=O)Nc4cc(C(C)(C)C(F)(F)F)nn4-c4ccccc4)c3)c2cc1OC [Ex 307] when tested on RAF kinases (Homo sapiens).
> 1000 nM

###

Molecular target: RAF kinases (Homo sapiens, UniProt P15056, V600E)
Experiment: biochemical
pKd: −log10 of the molar value.
measure: pKd

Before answering, review these 5 worked examples.
>>> endpoint_value("COc1cc2ncnc(Sc3cccc(NC(=O)Nc4cc(C(C)(C)C)nn4-c4ccc(C#N)cc4)c3)c2cc1OC [Ex 329]")
"6.30 to 6.60"
>>> endpoint_value("COc1cc2ncnc(Sc3cccc(NC(=O)Nc4cc(C(F)(F)F)nn4-c4ccccc4)c3)c2cc1OC [Ex 192]")
"6.00 to 6.30"
>>> endpoint_value("COc1cc2ncnc(Oc3cccc(NC(=O)Nc4cc(C(C)(C)C)nn4-c4ccccn4)c3)c2cc1OC [Ex 344]")
"6.00 to 6.30"
>>> endpoint_value("COCCOc1cc2ncnc(Sc3cccc(NC(=O)Nc4cc(C(C)(C)C)nn4-c4cccc(C)c4)c3)c2cc1OC [Ex 287]")
"6.00 to 6.30"
>>> endpoint_value("COc1ccc(-n2nc(C(C)(C)C)cc2NC(=O)Nc2cccc(Sc3ncnc4cc(OC)c(OC)cc34)c2)cc1 [Ex 362]")
"6.00 to 6.30"

Answer with the recorded pKd of COc1cc2ncnc(Sc3cccc(NC(=O)Nc4ccc(C(F)(F)F)c(OC)c4)c3)c2cc1OC [Ex 190] only.
6.00 to 6.30

# return recorded pKd for input COc1cc2ncnc(Oc3cccc(NC(=O)Nc4nccc(C(F)(F)F)n4)c3)c2cc1OC [Ex 143]
6.30 to 6.60

# return recorded pKd for entry COc1cc2ncnc(Sc3cccc(NC(=O)Nc4cc(C(C)(C)C)nn4-c4ccccc4C(F)(F)F)c3)c2cc1OC [Ex 375]
6.00 to 6.30

###

Target: RAF kinases (Homo sapiens, UniProt P15056)
Sequence (P15056 whole entry): as the sequence (P15056 whole entry V600E) above, with E600V counted along it
Assay: biochemical
measure: Kd

>>> endpoint_value("COc1cc2c(Sc3cccc(NC(=O)Nc4cc(C(C)(C)C)on4)c3)ncnc2cc1OCCN1CCN(CCO)CC1")
"250 to 500 nM"
>>> endpoint_value("COc1cc2ncnc(Oc3cccc(NC(=O)Nc4cc(C(C)(C)C)on4)c3)c2cc1OCCCN1CCC(CO)CC1")
"500 to 1000 nM"
>>> endpoint_value("COc1cc2ncnc(Oc3cccc(NC(=O)Nc4cc(C(C)(C)C)nn4-c4ccc(C)nc4)c3)c2cc1OC")
"500 to 1000 nM"
>>> endpoint_value("COc1cc2ncnc(Oc3cccc(NC(=O)Nc4cc(C(C)(C)C)nn4-c4cncc(F)c4)c3)c2cc1OC")
"500 to 1000 nM"
>>> endpoint_value("COc1cc2c(Oc3cccc(NC(=O)Nc4cc(C(C)(C)C)on4)c3)ncnc2cc1OCCN1CCOCC1")
"250 to 500 nM"

Specify measured Kd for COc1cc2ncnc(Oc3cccc(NC(=O)Nc4cc(C(C)(C)C#N)no4)c3)c2cc1OC .
250 to 500 nM

Supply measured Kd of CCOc1cc2c(Oc3cccc(NC(=O)Nc4cc(C(F)(F)F)nn4-c4ccccc4)c3)ncnc2cc1OC in your reply.
250 to 500 nM

Given the compound COc1cc2ncnc(Sc3cccc(NC(=O)Nc4cc(C(C)C)nn4-c4ccccc4)c3)c2cc1OC , write its reported Kd.
250 to 500 nM

Provide measured Kd value, entry: COc1cccc(NC(=O)Nc2cccc(Oc3ncnc4cc(OC)c(OC)cc34)c2)c1
500 to 1000 nM

Return the recorded Kd value; entry: COc1cc2ncnc(Sc3cccc(NC(=O)Nc4cc(C(C)(C)C)on4)c3)c2cc1OCCN1CCOCC1
250 to 500 nM

###

Molecular target: RAF kinases (Homo sapiens, UniProt P04049)
Sequence (P04049 whole entry): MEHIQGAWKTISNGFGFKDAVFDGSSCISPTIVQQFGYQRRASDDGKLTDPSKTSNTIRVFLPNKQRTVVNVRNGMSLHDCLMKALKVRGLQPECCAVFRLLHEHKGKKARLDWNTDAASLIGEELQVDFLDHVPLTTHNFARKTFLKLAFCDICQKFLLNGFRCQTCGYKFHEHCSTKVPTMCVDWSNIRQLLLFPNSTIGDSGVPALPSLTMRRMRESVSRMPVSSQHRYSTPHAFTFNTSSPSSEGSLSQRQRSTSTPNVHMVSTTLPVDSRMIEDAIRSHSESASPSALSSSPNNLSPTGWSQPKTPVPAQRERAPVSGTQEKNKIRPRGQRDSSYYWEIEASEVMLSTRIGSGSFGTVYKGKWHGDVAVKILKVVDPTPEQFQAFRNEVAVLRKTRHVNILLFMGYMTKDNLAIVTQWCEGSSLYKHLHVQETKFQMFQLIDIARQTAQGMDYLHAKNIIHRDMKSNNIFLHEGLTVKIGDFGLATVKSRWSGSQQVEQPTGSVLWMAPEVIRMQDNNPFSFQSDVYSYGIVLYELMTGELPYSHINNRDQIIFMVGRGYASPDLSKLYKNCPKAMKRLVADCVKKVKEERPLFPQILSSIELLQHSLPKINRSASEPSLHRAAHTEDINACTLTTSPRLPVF
Test: biochemical
Where a name gives a salt, the structure may show the parent alone.
measure: Kd

>>> endpoint_value("COc1cc2c(Oc3cccc(NC(=O)Nc4cc(C(C)(C)C)on4)c3)ncnc2cc1O [Ex 95]")
"0.25 to 0.5 µM"
>>> endpoint_value("COc1cc2c(Sc3cccc(NC(=O)Nc4cc(C(C)(C)C)on4)c3)ncnc2cc1OCCN1CCCCC1 [Ex 80]")
"0.25 to 0.5 µM"
>>> endpoint_value("COc1cc2ncnc(Oc3cccc(NC(=O)Nc4cc(C(C)(C)C)on4)c3)c2cc1OCCCN1CCN(S(C)(=O)=O)CC1 [Ex 25]")
"0.25 to 0.5 µM"
>>> endpoint_value("COc1cc2nc(Cl)nc(Oc3cccc(NC(=O)Nc4cc(C(C)(C)C)on4)c3)c2cc1OC [Ex 310]")
"0.5 to 1 µM"
>>> endpoint_value("COc1cc2ncnc(Oc3cccc(NC(=O)Nc4cc(C5(C(F)(F)F)CC5)nn4-c4ccccc4)c3)c2cc1OC [Ex 137]")
"> 1 µM"
>>> endpoint_value("COc1cc2c(Sc3cccc(NC(=O)Nc4cc(C(C)(C)C)on4)c3)ncnc2cc1OCCN1CCN(C)CC1 [Ex 83]")
"0.25 to 0.5 µM"
>>> endpoint_value("COc1cc2ncnc(Sc3cccc(NC(=O)Nc4cc(C(C)(C)C(F)(F)F)on4)c3)c2cc1OC [Ex 261]")
"< 0.25 µM"
>>> endpoint_value("COCCOc1ccc2ncnc(Oc3cccc(NC(=O)Nc4cc(C(C)(C)C)on4)c3)c2c1 [Ex 40]")
"0.25 to 0.5 µM"

Answer with the recorded Kd for the molecule listed here: COc1cc2ncnc(Oc3cccc(NC(=O)Nc4cc(C(C)(C)F)no4)c3)c2cc1OC [Ex 126]
< 0.25 µM

Answer with reported Kd of COc1cc2ncnc(Oc3cccc(NC(=O)Nc4cc(CN5CCOCC5)cc(C(F)(F)F)c4)c3)c2cc1OC [Ex 151]
0.25 to 0.5 µM

Give the value of Kd reported for the following: COc1cc2ncnc(Oc3cccc(NC(=O)Nc4cc(C(C)(C)C)on4)c3)c2cc1OC[C@H](O)CN1CCN(C)CC1 [Ex 112]
0.25 to 0.5 µM

Name the recorded Kd of the item COc1ccc(-n2nc(C(C)C)cc2NC(=O)Nc2cccc(Sc3ncnc4cc(OC)c(OC)cc34)c2)cc1 [Ex 349] in your answer.
0.5 to 1 µM

Please give measured Kd of the following entry: COc1cc2ncnc(Oc3cccc(NC(=O)Nc4cc(C(C)C)nn4-c4cncc(F)c4)c3)c2cc1OC [Ex 314]
0.25 to 0.5 µM

Consider the molecule CC(C)(C)c1cc(NC(=O)Nc2cccc(Oc3ncnc4cc5c(cc34)OCCO5)c2)no1 [Ex 14, hydrochloride] and give its recorded Kd.
0.25 to 0.5 µM

###

Biological target: RAF kinases (Homo sapiens, UniProt P15056)
Settings: read-out: BRAF WT Kd; BRAF WT
Each entry below lists one item and its recorded Kd value.

# annotated cases, reported Kd shown
>>> endpoint_value("COc1cc2ncnc(Oc3cc(NC(=O)Nc4cc(C(C)(C)F)no4)c(F)cc3F)c2cc1OC")
"< 0.25 µM"
>>> endpoint_value("CCOc1cc2ncnc(Oc3cccc(NC(=O)Nc4cc(C(C)(CF)CF)on4)c3)c2cc1OC")
"< 0.25 µM"
>>> endpoint_value("COCCOc1cc2ncnc(Sc3cccc(NC(=O)Nc4cc(C(C)(C)C)nn4-c4cccc(C)c4)c3)c2cc1OC")
"> 1 µM"
>>> endpoint_value("CCOc1cc2c(Oc3cccc(NC(=O)Nc4cc(C(C)(CF)CF)on4)c3)ncnc2cc1OC")
"< 0.25 µM"
>>> endpoint_value("COc1cc2ncnc(Oc3cccc(NC(=O)Nc4cc(C(C)(C)C)nn4-c4ccnc(C)c4)c3)c2cc1OC")
"> 1 µM"

Specify Kd for COc1cc2ncnc(Oc3cccc(NC(=O)Nc4cc(C(C)(C)C)nn4-c4ccc(Cl)cc4)c3)c2cc1OC and stop.
> 1 µM
